Data credit: paper PMC9516332

Target: UniProt:O43781
Sequence (O43781 1-588): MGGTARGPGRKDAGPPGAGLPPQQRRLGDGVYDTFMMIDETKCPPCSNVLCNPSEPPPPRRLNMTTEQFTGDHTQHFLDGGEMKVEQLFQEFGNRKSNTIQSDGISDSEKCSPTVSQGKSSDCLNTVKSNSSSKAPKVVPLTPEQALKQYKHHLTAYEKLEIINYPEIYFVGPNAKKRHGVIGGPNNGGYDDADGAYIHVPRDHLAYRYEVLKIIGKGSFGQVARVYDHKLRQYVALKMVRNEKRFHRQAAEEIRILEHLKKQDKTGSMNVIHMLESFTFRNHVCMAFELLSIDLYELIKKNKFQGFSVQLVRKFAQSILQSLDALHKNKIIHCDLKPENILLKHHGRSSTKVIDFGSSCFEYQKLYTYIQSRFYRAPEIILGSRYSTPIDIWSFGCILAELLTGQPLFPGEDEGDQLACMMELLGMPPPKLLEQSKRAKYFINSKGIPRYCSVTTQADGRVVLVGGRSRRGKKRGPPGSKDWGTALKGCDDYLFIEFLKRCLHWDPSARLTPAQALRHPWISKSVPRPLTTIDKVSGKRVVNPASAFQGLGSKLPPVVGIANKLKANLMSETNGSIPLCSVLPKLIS
Assay: Kinase panel profiling at 1 µmol/L (MSA or IMAP), percentage inhibition
Type: biochemical
Settings: kinase DYRK3; 1 µmol/L single concentration; read-out: %-inhibition at 1 µmol/L, DYRK3
readout: inhibition at 1 µM (%)
API: value field is a number in %; no unit string.

Problem: Return reported inhibition at 1 µM; argument: "Cc1cc(Nc2ncnc3ccc(NC4=NC(C)(C)CO4)cc23)ccc1Oc1ccn2ncnc2c1"
Solution: 1.07

Problem: Return reported inhibition at 1 µM; argument: "FC(F)(F)c1ccc(CNc2ccc(Cc3c[nH]c4ncc(Cl)cc34)cn2)cn1"
Solution: 8

Problem: Return reported inhibition at 1 µM; argument: "CO[C@]1(C(=O)N[C@@H](C)c2ccc(-n3cc(F)cn3)nc2)CC[C@H](c2nc(C)cc(Nc3cc(C)[nH]n3)n2)CC1"
Solution: -4.32

Problem: Return reported inhibition at 1 µM; argument: "O=C(Nc1cnn2ccc(N3CCC[C@@H]3c3cc(F)ccc3F)nc12)N1CC[C@H](O)C1"
Solution: -6

Problem: Return reported inhibition at 1 µM; argument: "C[C@H](Nc1ncnc2nc[nH]c12)c1cc2cccc(Cl)c2c(=O)n1-c1ccccc1"
Solution: -2

Problem: Return reported inhibition at 1 µM; argument: "CN1CCN(c2ccc(C(=O)Nc3n[nH]c4ccc(Cc5cc(F)cc(F)c5)cc34)c(NC3CCOCC3)c2)CC1"
Solution: -3

Problem: Return reported inhibition at 1 µM; argument: "CCN1CCN(c2ccc(Nc3cc(N(C)C(=O)Nc4c(Cl)c(OC)cc(OC)c4Cl)ncn3)cc2)CC1"
Solution: -10

Problem: Return reported inhibition at 1 µM; argument: "CCN1C(=O)N(c2c(F)c(OC)cc(OC)c2F)Cc2cnc3[nH]c(CN4CCOCC4)cc3c21"
Solution: -2.68

Problem: Return reported inhibition at 1 µM; argument: "COc1ccc(CN2C3CC2CN(c2ccc(-c4cc(OCC(C)(C)O)cn5ncc(C#N)c45)cn2)C3)cn1"
Solution: 19

Problem: Return reported inhibition at 1 µM; argument: "COc1cc2ncnc(Nc3ccc(F)c(Cl)c3)c2cc1NC(=O)/C=C/CN1CCCCC1"
Solution: 18

Problem: Return reported inhibition at 1 µM; argument: "C=CC(=O)N1CCC([C@@H]2CCNc3c(C(N)=O)c(-c4ccc(Oc5ccccc5)cc4)nn32)CC1"
Solution: -6

Problem: Return reported inhibition at 1 µM; argument: "Cc1nc(NC(=O)N2CCC[C@H]2C(N)=O)sc1-c1ccnc(C(C)(C)C(F)(F)F)c1"
Solution: 10

Problem: Return reported inhibition at 1 µM; argument: "COC(=O)N[C@@H](C)CNc1nccc(-c2cn(C(C)C)nc2-c2cc(Cl)cc(NS(C)(=O)=O)c2F)n1"
Solution: -1.06

Problem: Return reported inhibition at 1 µM; argument: "Cn1cc(-c2cc3c(N4CCN(c5ncc([C@@](C)(N)c6ccc(F)cc6)cn5)CC4)ncnn3c2)cn1"
Solution: 49

Problem: Return reported inhibition at 1 µM; argument: "CCc1nc(C(N)=O)c(Nc2ccc(N3CCC(N4CCN(C)CC4)CC3)c(OC)c2)nc1NC1CCOCC1"
Solution: 27

Problem: Return reported inhibition at 1 µM; argument: "C[C@H]1Oc2cc(cnc2N)-c2c(nn(C)c2C#N)CN(C)C(=O)c2ccc(F)cc21"
Solution: -3.41

Problem: Return reported inhibition at 1 µM; argument: "CCn1c(=O)c(-c2cc(NC(=O)Nc3ccccc3)c(F)cc2Br)cc2cnc(NC)cc21"
Solution: -3.77

Problem: Return reported inhibition at 1 µM; argument: "Cn1cnc2c(F)c(Nc3ccc(Br)cc3F)c(C(=O)NOCCO)cc21"
Solution: -3.3

Problem: Return reported inhibition at 1 µM; argument: "Cn1cnc2c(F)c(Nc3ccc(Br)cc3Cl)c(C(=O)NOCCO)cc21"
Solution: -4.7
